Data origin, for the record: PubChem BioAssay (NCATS)

test system: NIH3T3; assay: Cytotoxic Profiling of Annotated Libraries Using Quantitative High-Throughput Screening (AID 1296008); conditions: Five cell lines viability, CellTiter-Glo ATP luminescence, 48-72 h; stronger effect = lower value; also: % is scaled to controls: 0 for no effect and ±100 for the full control effect
Results filed as inconclusive are left out.
assay endpoint: max response (%)
Answers are plain numbers, in %.

[
  {
    "molecule": "COC(=O)[C@@]1(c2ccc(C)cc2)C[C@H]1CN1CCC(O)(c2ccccc2)CC1",
    "unit of measure": "%",
    "readout number": -2.42
  }
]

Give max response for each of the items listed below.
1. CC(=O)c1cc2c(cc1O)OC(C)(C)C=C2
2. CN1C2CCC1CC(OC(=O)[C@H](CO)c1ccccc1)C2 (some centres not stated)

Reply:
[-4.07, -25.3]

Give max response for each of the items listed below.
1. CC1=CC(=O)CC2C1(O)CCC(C)C21CC(c2ccoc2)OC1=O (configuration not stated)
2. C[C@@H]1CN(Cc2ncccn2)C[C@H]1c1nc2c(cnn2C2CCOCC2)c(=O)[nH]1
3. COC1C(=O)CCC2(CO2)C1(O)C1(C)OC1CC=C(C)C (configuration not stated)

Reply:
[-0.573, -4.05, -14.1]

Give max response for each of the items listed below.
1. COc1cc2occc2c(O[C@@H]2O[C@H](CO)[C@@H](O)[C@H](O)[C@H]2O)c1CCC(=O)O
2. O=C(O)Cc1ccc2oc(-c3ccc(NC(=O)/C=C/c4ccc(Br)cc4)c(F)c3)nc2c1

Reply:
1. 1.36
2. 1.97

Give max response for each of the items listed below.
1. CCC(CC)C(=O)Nc1sc2c(c1C#N)CCC(C(C)(C)CC)C2 (configuration not stated)
2. CC1=C(C)C(=O)OC(C(C)C2CCC3C4C5OC5C5(O)CC(OC6OC(CO)C(OC7OC(C)C(O)C(O)C7O)C(O)C6O)CC(O)C5(C)C4CCC23C)C1 (configuration not stated)

Reply:
3.55
3.69

###

I'd appreciate it if you could supply max response values for the items below.
system: HEK293; assay: Cytotoxic Profiling of Annotated Libraries Using Quantitative High-Throughput Screening (AID 1296008); conditions: Five cell lines viability, CellTiter-Glo ATP luminescence, 48-72 h; stronger effect = lower value; also: % is scaled to controls: 0 for no effect and ±100 for the full control effect
Results filed as inconclusive are left out.
Give bare numbers, in %.

The examples below pair each entry with its known result.
[
  {
    "compound": "COC(=O)CC(O)C1OC(c2ccccc2)C(O)C1O (centres undefined)",
    "unit of measure": "%",
    "max response": 2.88
  },
  {
    "compound": "Nc1nc2c(ncn2[C@@H]2O[C@@H]3COP(=O)(O)O[C@H]3[C@H]2O)c(=O)[nH]1",
    "unit of measure": "%",
    "max response": -4.75
  },
  {
    "compound": "CCCC(=O)O[C@@H]1[C@@H]2[C@@H](OC(C)=O)[C@]3(C)C(=O)[C@H]4[C@@H](OC(C)=O)C(C)(C)C[C@H]4[C@]3(C)C(=O)[C@@]2(OC(C)=O)C[C@@H]1C",
    "unit of measure": "%",
    "max response": 3.97
  }
]

Turning now to a further record.
Query: Form entry - test system: HEK293; read-out: max response; compound: "C=C[C@H]1[C@H](O[C@@H]2O[C@H](CO)[C@@H](O)[C@H](O)[C@H]2O)OC=C(C(=O)OC)[C@H]1C[C@@H]1c2cc(O)c(O)cc2CCN1C(C)=O"
Reply: 2.33
